Test system: Hyperlipemia Model of SD Rat
Test: Screening in the hyperlipemia model of SD rat (fat emulsion by gavage; serum lipids)
Format: in vivo
Conditions: hyperlipemia SD rats, 40 mg/kg, dosed 21 days, X ± SD
Endpoint label: CHO1 Concentration (serum cholesterol) (mmol/L)
Numbers only, in mmol/L.

Field: example entries. Status: answers known.
Compound	Endpoint label	Value observed
CCC(C)(Oc1ccc(C2(c3ccc(OC(C)(CC)C(=O)NCC(=O)c4ccc(O)cc4)cc3)CCCCC2)cc1)C(=O)O (stereo not shown)	CHO1 Concentration (serum cholesterol)	12.18
CC(C)(Oc1ccc(C2CC2(Cl)Cl)cc1)C(=O)NCC(=O)c1ccc(O)cc1 (stereo not shown)	CHO1 Concentration (serum cholesterol)	14.99
CC(C)(Oc1ccc(C2CC2(Cl)Cl)cc1)C(=O)NCC(=O)c1ccc(OC(=O)C(C)(C)Oc2ccc(C3CC3(Cl)Cl)cc2)cc1 (stereo not shown)	CHO1 Concentration (serum cholesterol)	12.92

Provide the reported CHO1 Concentration (serum cholesterol) of each entry below, same order.
1. Cc1ccc(C)c(OCCCC(C)(C)C(=O)NC2CCC(C(=S)c3ccc(O)cc3)CC2)c1 (stereo not shown)
2. Cc1ccc(C)c(OCCCC(C)(C)C(=O)NCC(=O)c2ccc(CO)cc2)c1

15.04
14.42

Provide the reported CHO1 Concentration (serum cholesterol) of each entry below, same order.
1. CCC(C)(Oc1ccc(C2(c3ccc(OC(C)(CC)C(=O)NCC(=O)c4ccc(O)cc4)cc3)CCCCC2)cc1)C(=O)NCC(=O)c1ccc(O)cc1 (stereo not shown)
2. CCC(CC)(CCCOc1cc(C)cc(C)c1)C(=O)NCC(=O)c1cccc(O)c1

1: 20.17; 2: 20.17
